meta.source: patent US12692269B2

tested-system: TEAD1 TAZ (amino acids 13-57) (Homo sapiens)
Sequence (P28347 167-426 limits assumed): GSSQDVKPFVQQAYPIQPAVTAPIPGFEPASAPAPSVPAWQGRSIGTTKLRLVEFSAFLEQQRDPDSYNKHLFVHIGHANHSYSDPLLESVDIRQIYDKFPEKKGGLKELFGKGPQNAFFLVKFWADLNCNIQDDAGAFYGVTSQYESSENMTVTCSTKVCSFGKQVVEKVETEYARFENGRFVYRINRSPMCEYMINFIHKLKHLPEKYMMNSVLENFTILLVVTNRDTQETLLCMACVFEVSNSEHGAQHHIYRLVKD
protocol: TEAD1-TAZ HTRF (TR-FRET) protein-protein interaction assay
experimental-conditions: TEAD1-TAZ HTRF, TR-FRET 665 nm/615 nm; read-out: TEAD1 TAZ HTRF combined: EC50
pEC50: −log10 of the molar value.
Lab note: anything with pEC50 at or over 7 counts as true; the rest go in false.

API: above_or_equal(metric=pEC50, cutoff=7) for item Cn1cnc(-c2nn3c(=O)cc(-c4ccc(C5CCCCC5)cc4)[nH]c3c2C(=O)N2CC(CF)C2)c1
true

State whether the measured pEC50 reaches 7, counting equality as reaching it, for O=C(c1c(-c2ccccn2)nn2c(=O)cc(-c3ccc(C4CCCCC4)cc3)[nH]c12)N1CC(CF)C1
true

# bool: pEC50 of O=C(c1c(-c2ncccn2)nn2c(=O)cc(-c3ccc(CC4CCCC4)cc3)[nH]c12)N1CC(CF)C1 >= 7
true

Decide: is the reported value of pEC50 for O=C(c1c(-c2cnccn2)nn2c(=O)cc(-c3ccc(CC4CCCC4)cc3)[nH]c12)N1CC(CF)C1 equal to or greater than 7?
true

Is reported pEC50 greater than or equal to 7 here: Cc1ccnc(-c2nn3c(=O)cc(-c4ccc(C5CCCCC5)cc4)[nH]c3c2C(=O)N2CC(CF)C2)c1
true

Assess whether reported pEC50 for Cc1nccnc1-c1nn2c(=O)cc(-c3ccc(C4CCCCC4)cc3)[nH]c2c1C(=O)N1CC(CF)C1 sits at 7 or higher.
true

Quick check, pEC50 >= 7? Cc1nccnc1-c1nn2c(=O)cc(-c3ccc(OC(c4ccccc4)C(F)(F)F)cc3)[nH]c2c1C(=O)N1C[C@H](CF)[C@@H]1C (single isomer, unassigned) [Final product obtained using Enantiomer B from Step 1, Example 56]
false

In plain terms: is recorded pEC50 at least 7 for Cc1ccnc(-c2nn3c(=O)cc(-c4ccc(C5CCCCC5)cc4)[nH]c3c2C(=O)N2CC(CF)C2)n1 ?
true

Given Cc1nccnc1-c1nn2c(=O)cc(-c3ccc(O[C@@H](c4ccccc4)C(F)(F)F)cc3)[nH]c2c1C(=O)N1CC(CF)C1 , state whether its pEC50 is at least 7.
false

====

Field: TEAD4 TAZ HTRF combined: Max % Inhibition. Provide a value for each of the molecules that follow.
tested-system: TEAD4 TAZ (amino acids 13-57) (Homo sapiens)
protocol: TEAD4-TAZ HTRF (TR-FRET) protein-protein interaction assay
Assay type: binding
experimental-conditions: TEAD4, TAZ peptide, HTRF
Returns: string containing the number followed by the unit.

Endpoint output: TEAD4 TAZ HTRF combined: Max % Inhibition of O=C(c1c(C2CNCCO2)nn2c(=O)cc(-c3ccc(C4CCCCC4)cc3)[nH]c12)N1CC(CF)C1 (single isomer, unassigned) [Enantiomer B, Example 63] . Value?
28.0%

Form field: reported TEAD4 TAZ HTRF combined: Max % Inhibition of O=C(c1c(-c2ncco2)nn2c(=O)cc(-c3ccc(C4CCCCC4)cc3)[nH]c12)N1CC(CF)C1 [Compound 19]
38.5%

// returns reported TEAD4 TAZ HTRF combined: Max % Inhibition for input Cc1nccnc1-c1nn2c(=O)cc(-c3ccc(-c4ccccc4)cc3)[nH]c2c1C(=O)N1CC(CF)C1 [Compound 60]
64.0%

====

Provide the reported TEAD1 TAZ HTRF combined: Max % Inhibition of each item.
tested-system: TEAD1 TAZ (amino acids 13-57) (Homo sapiens)
protocol: TEAD1-TAZ HTRF (TR-FRET) protein-protein interaction assay
Type: binding
experimental-conditions: TEAD1, TAZ peptide, HTRF
Experimental: Purified His-tagged TEAD protein (YAP Binding Domain, amino acids 217-447) is pre-incubated with Europium labelled anti-His antibody tracer (Perkin Elmer Cat #AD0110). […] After 60 minutes, the plate is read on a plate reader using TR-FRET mode with wavelengths of 665 nm/615 nm. […] The potency of compounds as YAP:TEAD or TAZ:TEAD protein-protein interaction (PPi) inhibitors is determined by an IC50 or EC50 value generated using a non-linear four parameter curve fit.
Write the value in % as a bare number.

// TEAD1 TAZ HTRF combined: Max % Inhibition lookup, key: O=C(c1c(-c2ncccn2)nn2c(=O)cc(-c3ccc(C4(C5CCCC5)CC4)cc3)[nH]c12)N1CC(CF)C1 [Compound 57]
46.5

Recorded TEAD1 TAZ HTRF combined: Max % Inhibition of CC(C)c1ccnc(-c2nn3c(=O)cc(-c4ccc(C5CCCCC5)cc4)[nH]c3c2C(=O)N2CC(CF)C2)n1 [Compound 10] , please.
72.0

I have this compound here, CCn1cnc(-c2nn3c(=O)cc(-c4ccc(C5CCCCC5)cc4)[nH]c3c2C(=O)N2CC(CF)C2)c1 [Compound 31] , and I need its recorded TEAD1 TAZ HTRF combined: Max % Inhibition.
60.5

If you can, please state the reported TEAD1 TAZ HTRF combined: Max % Inhibition value of N#Cc1nccnc1-c1nn2c(=O)cc(-c3ccc(C4CCCCC4)cc3)[nH]c2c1C(=O)N1CC(CF)C1 [Compound 8] .
71.0

Return reported TEAD1 TAZ HTRF combined: Max % Inhibition; argument: Cc1nccnc1-c1nn2c(=O)cc(-c3ccc(O[C@@H](c4ccccc4)C(F)(F)F)cc3)[nH]c2c1C(=O)N1CC(CF)C1 [Compound 67]
65.0

What value of TEAD1 TAZ HTRF combined: Max % Inhibition has been reported for the following compound? Cc1nccnc1-c1nn2c(=O)cc(-c3ccc(C4CCCCC4)cc3)[nH]c2c1C(=O)N1C[C@@H](CF)[C@H]1C (single isomer, unassigned) [Isomer A, Example 41]
53.5

I am curious: what TEAD1 TAZ HTRF combined: Max % Inhibition value has been reported for CCc1ccnc(-c2nn3c(=O)cc(-c4ccc(C5CCCCC5)cc4)[nH]c3c2C(=O)N2CC(CF)C2)n1 [Compound 12] ?
67.5

# input compound: Cc1c(-c2nn3c(=O)cc(-c4ccc(C5CCCCC5)cc4)[nH]c3c2C(=O)N2CC(CF)C2)ncn1C [Compound 30] ; wanted: its TEAD1 TAZ HTRF combined: Max % Inhibition
64.5

====

Hi there, I'd appreciate the recorded TEAD3 TAZ HTRF combined: Max % Inhibition for every entry that follows.
tested-system: TEAD3 TAZ (amino acids 13-57) (Homo sapiens, UniProt Q99594)
Sequence (Q99594 173-435 limits assumed): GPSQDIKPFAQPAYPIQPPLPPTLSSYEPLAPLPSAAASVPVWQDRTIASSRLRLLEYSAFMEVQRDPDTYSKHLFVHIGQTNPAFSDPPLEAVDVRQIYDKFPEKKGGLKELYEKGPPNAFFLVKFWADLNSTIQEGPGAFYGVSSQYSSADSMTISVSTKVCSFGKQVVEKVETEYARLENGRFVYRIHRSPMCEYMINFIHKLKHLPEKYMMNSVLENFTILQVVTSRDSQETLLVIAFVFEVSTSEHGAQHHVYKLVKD
protocol: TEAD3-TAZ HTRF (TR-FRET) protein-protein interaction assay
Type: binding
experimental-conditions: TEAD3, TAZ peptide, HTRF
Enter your answer as a number in %; do not include the unit.

For the compound shown here, O=C(c1c(-c2ncco2)nn2c(=O)cc(-c3ccc(C4CCCCC4)cc3)[nH]c12)N1CC(CF)C1 [Compound 19] , give the reported TEAD3 TAZ HTRF combined: Max % Inhibition.
53.0

Given the compound C[C@@H]1[C@H](CF)CN1C(=O)c1c(-c2cnccn2)nn2c(=O)cc(-c3ccc(C4CCCCC4)cc3)[nH]c12 (single isomer, unassigned) [Isomer B, Example 39] , what is its reported TEAD3 TAZ HTRF combined: Max % Inhibition?
68.0

TEAD3 TAZ HTRF combined: Max % Inhibition for Cc1nccnc1-c1nn2c(=O)cc(-c3ccc(C4CCCCC4)c(F)c3)[nH]c2c1C(=O)N1CC(CF)C1 [Compound 21] ?
69.5

====

I'd appreciate it if you could supply TEAD4 TAZ HTRF combined: Max % Inhibition values for the items below.
tested-system: TEAD4 TAZ (amino acids 13-57) (Homo sapiens, UniProt Q15561)
Sequence (Q15561 217-434 limits assumed): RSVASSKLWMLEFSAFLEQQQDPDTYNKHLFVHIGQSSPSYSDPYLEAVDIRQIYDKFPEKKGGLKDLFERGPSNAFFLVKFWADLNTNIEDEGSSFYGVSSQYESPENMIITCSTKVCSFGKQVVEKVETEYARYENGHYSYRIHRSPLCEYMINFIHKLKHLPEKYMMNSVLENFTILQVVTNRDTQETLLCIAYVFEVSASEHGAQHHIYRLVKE
protocol: TEAD4-TAZ HTRF (TR-FRET) protein-protein interaction assay
Assay type: binding
experimental-conditions: TEAD4, TAZ peptide, HTRF
Numbers only here, please. The scale is %.

Need TEAD4 TAZ HTRF combined: Max % Inhibition of CC(C)(C)c1ccc(COc2cc(=O)n3nc(-c4cnccn4)c(C(=O)N4CC(CF)C4)c3[nH]2)cc1 [Compound 53] , thanks.
51.5

Recorded TEAD4 TAZ HTRF combined: Max % Inhibition of Cc1nccnc1-c1nn2c(=O)cc(-c3ccc(C4CCCCC4)c(F)c3)[nH]c2c1C(=O)N1CC(CF)C1 [Compound 21] , please.
51.0

Item Cc1nccnc1-c1nn2c(=O)cc(-c3ccc(C4CCCCC4)cc3)[nH]c2c1C(=O)N1C[C@@H](CF)[C@H]1C (single isomer, unassigned) [Isomer A, Example 41] has what recorded TEAD4 TAZ HTRF combined: Max % Inhibition?
51.5

Query (compound): O=C(c1c(-c2nccc(C(F)(F)F)n2)nn2c(=O)cc(-c3ccc(C4CCCCC4)cc3)[nH]c12)N1CC(CF)C1 [Compound 11] ; field requested: TEAD4 TAZ HTRF combined: Max % Inhibition
48.5

Data request, read-out TEAD4 TAZ HTRF combined: Max % Inhibition, for Cc1ccnc(-c2nn3c(=O)cc(-c4ccc(C5CCCCC5)cc4)[nH]c3c2C(=O)N2CC(CF)C2)c1C [Compound 29]
50.5

Look up TEAD4 TAZ HTRF combined: Max % Inhibition: Cc1ccnc(-c2nn3c(=O)cc(-c4ccc(C5CCCCC5)cc4)[nH]c3c2C(=O)N2CC(CF)C2)c1 [Compound 18]
49.0
